- ASSAY_DETAILS: Hydrophobicity index (k'') (RP-HPLC pH 7.5)
- Type: ADME
# k' annotations

COMPOUND: CCNC(=O)[C@H]1OC(n2cnc3c(N)nc(C#Cc4ccc(C(N)=O)cc4)nc32)[C@H](O)[C@@H]1O (stereo not given in full)
k': 0.32
--
COMPOUND: CCNC(=O)[C@H]1OC(n2cnc3c(N)nc(C#Cc4ccc(C=O)cc4)nc32)[C@H](O)[C@@H]1O (stereo not given in full)
k': 1.02
--
COMPOUND: CCNC(=O)[C@H]1OC(n2cnc3c(N)nc(C#Cc4ccc(O)cc4)nc32)[C@H](O)[C@@H]1O (stereo not given in full)
k': 0.66
--
COMPOUND: CCNC(=O)[C@H]1OC(n2cnc3c(N)nc(C#CCCc4ccccc4)nc32)[C@H](O)[C@@H]1O (stereo not given in full)
k': 3.16
--
COMPOUND: CCNC(=O)[C@H]1OC(n2cnc3c(N)nc(C#Cc4cccs4)nc32)[C@H](O)[C@@H]1O (stereo not given in full)
k': 1.63
--
COMPOUND: CCNC(=O)[C@H]1OC(n2cnc3c(N)nc(C#Cc4ccc(C)cc4)nc32)[C@H](O)[C@@H]1O (stereo not given in full)
k': 3.59
--
COMPOUND: C#Cc1nc(N)c2ncn([C@@H]3O[C@H](C(=O)NCC)[C@@H](O)[C@H]3O)c2n1
k': 0.25
--
COMPOUND: CCNC(=O)[C@H]1OC(n2cnc3c(N)nc(C#Cc4cccc5ccccc45)nc32)[C@H](O)[C@@H]1O (stereo not given in full)
k': 5.49
--
COMPOUND: CCNC(=O)[C@H]1OC(n2cnc3c(N)nc(C#Cc4ccc([N+](=O)[O-])cc4)nc32)[C@H](O)[C@@H]1O (stereo not given in full)
k': 1.82
--
COMPOUND: CCNC(=O)[C@H]1OC(n2cnc3c(N)nc(C#Cc4ccccn4)nc32)[C@H](O)[C@@H]1O (stereo not given in full)
k': 0.49
--
COMPOUND: CCNC(=O)[C@H]1O[C@@H](n2cnc3c(N)nc(C#CCCCc4ccccc4)nc32)[C@H](O)[C@@H]1O
k': 5.82
--
COMPOUND: CCNC(=O)[C@H]1OC(n2cnc3c(N)nc(C#CCN4CCOCC4)nc32)[C@H](O)[C@@H]1O (stereo not given in full)
k': 0.28
--
COMPOUND: CCNC(=O)[C@H]1OC(n2cnc3c(N)nc(C#Cc4ccncc4)nc32)[C@H](O)[C@@H]1O (stereo not given in full)
k': 0.57
--
COMPOUND: CCNC(=O)[C@H]1OC(n2cnc3c(N)nc(C#CCn4ccnc4)nc32)[C@H](O)[C@@H]1O (stereo not given in full)
k': 0.22
--
COMPOUND: CCNC(=O)[C@H]1OC(n2cnc3c(N)nc(C#CCN4CCSCC4)nc32)[C@H](O)[C@@H]1O (stereo not given in full)
k': 0.66
--
COMPOUND: CCNC(=O)[C@H]1O[C@@H](n2cnc3c(N)nc(NCCc4ccc(CCC(=O)O)cc4)nc32)[C@H](O)[C@@H]1O
k': 0.24
--
COMPOUND: CCNC(=O)[C@H]1OC(n2cnc3c(N)nc(C#Cc4ccccc4C=O)nc32)[C@H](O)[C@@H]1O (stereo not given in full)
k': 1.14
--
COMPOUND: CCNC(=O)[C@H]1O[C@@H](n2cnc3c(N)ncnc32)[C@H](O)[C@@H]1O
k': 0.19
--
COMPOUND: OC[C@H]1O[C@@H](n2cnc3c(NC4CCCC4)nc(Cl)nc32)[C@H](O)[C@@H]1O
k': 2.76
--
COMPOUND: CCNC(=O)[C@H]1OC(n2cnc3c(N)nc(C#Cc4ccc(N)cc4)nc32)[C@H](O)[C@@H]1O (stereo not given in full)
k': 0.46
--
COMPOUND: CCNC(=O)[C@H]1OC(n2cnc3c(N)nc(C#Cc4cccc(C=O)c4)nc32)[C@H](O)[C@@H]1O (stereo not given in full)
k': 1.06
--
COMPOUND: CCNC(=O)[C@H]1OC(n2cnc3c(N)nc(C#Cc4ccc(C(F)(F)F)cc4)nc32)[C@H](O)[C@@H]1O (stereo not given in full)
k': 5.79
--
COMPOUND: CCNC(=O)[C@H]1OC(n2cnc3c(N)nc(C#Cc4ccc(OC)cc4)nc32)[C@H](O)[C@@H]1O (stereo not given in full)
k': 2.15
--
COMPOUND: CCNC(=O)[C@H]1OC(n2cnc3c(N)nc(C#CCc4ccccc4)nc32)[C@H](O)[C@@H]1O (stereo not given in full)
k': 2.4
--
COMPOUND: CCNC(=O)[C@H]1OC(n2cnc3c(N)nc(C#Cc4ccc(CCC(=O)OC(C)(C)C)cc4)nc32)[C@H](O)[C@@H]1O (stereo not given in full)
k': 2.28
--
COMPOUND: CCNC(=O)[C@H]1OC(n2cnc3c(N)nc(C#Cc4ccco4)nc32)[C@H](O)[C@@H]1O (stereo not given in full)
k': 1.06
--
COMPOUND: CCNC(=O)[C@H]1OC(n2cnc3c(N)nc(C#Cc4ccc(C(C)=O)cc4)nc32)[C@H](O)[C@@H]1O (stereo not given in full)
k': 1.18
--
COMPOUND: CCNC(=O)[C@H]1OC(n2cnc3c(N)nc(C#Cc4ccc(CC#N)cc4)nc32)[C@H](O)[C@@H]1O (stereo not given in full)
k': 0.76
--
COMPOUND: CCNC(=O)[C@H]1O[C@@H](n2cnc3c(N)nc(C#Cc4ccccc4)nc32)[C@H](O)[C@@H]1O
k': 2.04
--
COMPOUND: CCNC(=O)[C@H]1OC(n2cnc3c(N)nc(C#CCN4CCCCC4)nc32)[C@H](O)[C@@H]1O (stereo not given in full)
k': 1.11
--
COMPOUND: CCNC(=O)[C@H]1OC(n2cnc3c(N)nc(C#Cc4ccc(F)cc4)nc32)[C@H](O)[C@@H]1O (stereo not given in full)
k': 2.33
--
COMPOUND: CCNC(=O)[C@H]1OC(n2cnc3c(N)nc(C#CCN4CCN(C)CC4)nc32)[C@H](O)[C@@H]1O (stereo not given in full)
k': 0.42
--
COMPOUND: CCNC(=O)[C@H]1OC(n2cnc3c(N)nc(C#Cc4nccs4)nc32)[C@H](O)[C@@H]1O (stereo not given in full)
k': 0.55
--
COMPOUND: CCCCC#Cc1nc(N)c2ncn([C@@H]3O[C@H](C(=O)NCC)[C@@H](O)[C@H]3O)c2n1
k': 2.57
--
COMPOUND: CCNC(=O)[C@H]1OC(n2cnc3c(N)nc(C#Cc4cccnc4)nc32)[C@H](O)[C@@H]1O (stereo not given in full)
k': 0.51

---

# log10 of Ki annotations
- ASSAYED_SYSTEM: Adenosine receptor A1 (Rattus norvegicus, UniProt P25099)
- Sequence (P25099 whole entry): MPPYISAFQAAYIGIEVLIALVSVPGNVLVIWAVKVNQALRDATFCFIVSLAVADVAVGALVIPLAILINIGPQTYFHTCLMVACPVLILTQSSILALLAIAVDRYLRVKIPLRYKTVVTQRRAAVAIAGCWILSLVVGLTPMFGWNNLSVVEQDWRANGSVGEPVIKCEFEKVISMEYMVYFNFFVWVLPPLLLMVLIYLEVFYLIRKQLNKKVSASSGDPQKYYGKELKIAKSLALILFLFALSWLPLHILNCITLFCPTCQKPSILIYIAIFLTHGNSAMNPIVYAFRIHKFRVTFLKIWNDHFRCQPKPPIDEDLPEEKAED
READOUT_LABEL: log10 of Ki (log10 of the value in nM)

COMPOUND: CCNC(=O)[C@H]1OC(n2cnc3c(N)nc(C#CCn4ccnc4)nc32)[C@H](O)[C@@H]1O (stereo partly drawn)
log10 of Ki: 2.25

COMPOUND: CCNC(=O)[C@H]1OC(n2cnc3c(N)nc(C#Cc4ccc(C(N)=O)cc4)nc32)[C@H](O)[C@@H]1O (stereo partly drawn)
log10 of Ki: 3.88

COMPOUND: CCNC(=O)[C@H]1OC(n2cnc3c(N)nc(C#Cc4ccc(C)cc4)nc32)[C@H](O)[C@@H]1O (stereo partly drawn)
log10 of Ki: 2.70

COMPOUND: CCNC(=O)[C@H]1OC(n2cnc3c(N)nc(C#Cc4ccc(C=O)cc4)nc32)[C@H](O)[C@@H]1O (stereo partly drawn)
log10 of Ki: 3.00

COMPOUND: CCNC(=O)[C@H]1OC(n2cnc3c(N)nc(C#CCN4CCSCC4)nc32)[C@H](O)[C@@H]1O (stereo partly drawn)
log10 of Ki: 1.72

COMPOUND: CCNC(=O)[C@H]1OC(n2cnc3c(N)nc(C#Cc4ccco4)nc32)[C@H](O)[C@@H]1O (stereo partly drawn)
log10 of Ki: 2.49

COMPOUND: CCNC(=O)[C@H]1OC(n2cnc3c(N)nc(C#CCN4CCN(C)CC4)nc32)[C@H](O)[C@@H]1O (stereo partly drawn)
log10 of Ki: 1.56

---

Lab note: Ki readings collected with Adenosine receptor A1 (Rattus norvegicus, UniProt P25099) for the following compounds.

COMPOUND: CCNC(=O)[C@H]1OC(n2cnc3c(N)nc(C#Cc4cccc(C=O)c4)nc32)[C@H](O)[C@@H]1O (some centres undefined)
Ki [µM]: 1.44
//
COMPOUND: CCNC(=O)[C@H]1OC(n2cnc3c(N)nc(C#CCCc4ccccc4)nc32)[C@H](O)[C@@H]1O (some centres undefined)
Ki [µM]: 0.448
//
COMPOUND: CCNC(=O)[C@H]1OC(n2cnc3c(N)nc(C#Cc4ccc([N+](=O)[O-])cc4)nc32)[C@H](O)[C@@H]1O (some centres undefined)
Ki [µM]: 0.9
//
COMPOUND: CCNC(=O)[C@H]1OC(n2cnc3c(N)nc(C#Cc4ccc(CC#N)cc4)nc32)[C@H](O)[C@@H]1O (some centres undefined)
Ki [µM]: 1.6
